test: recombinant UMI read abundance after kanamycin selection (control-corrected) (log10(CPM+1)); higher = more efficient recombination; extreme values may be limits of the assay; sequences stand for … in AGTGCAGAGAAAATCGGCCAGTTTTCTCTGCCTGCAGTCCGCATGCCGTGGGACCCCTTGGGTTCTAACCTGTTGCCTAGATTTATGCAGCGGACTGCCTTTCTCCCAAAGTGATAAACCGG…AGGTTGGTTTCACT; site = the 11-nt donor
// reported recombinant UMI read abundance (log10) for each item listed
Please reply with the number alone, leaving off any unit.

AAGAAGACATGGACCGGTTTTCCCGGTAATCCGTATTTGAA (site AAGAAGACTTT): 2.39
CGGCGCTCATGGACCGGTTTTCCCGGTAATCCGTATTTGAT (site CGGCGCTCTAT): 2.65
CTACGCCCATGGACCGGTTTTCCCGGTAATCCGTATTTGTG (site CTACGCCCTCA): 0.232
GAATTCGCATGGACCGGTTTTCCCGGTAATCCGTATTTGCT (site GAATTCGCTAG): 2.87

Request: So what's the measured recombinant UMI read abundance (log10) for this one? TAGAATACATGGACCGGTTTTCCCGGTAATCCGTATTTGAA (site TAGAATACTTT)
Result: 0.686

Request: Another sequence to check: GGGGCACCATGGACCGGTTTTCCCGGTAATCCGTATTTGCC (site GGGGCACCTGG)
Result: 0

Request: Another sequence to check: TAATGTGCATGGACCGGTTTTCCCGGTAATCCGTATTTGGG (site TAATGGGCTCC)
Result: 0.00856

Request: Another sequence to check: GGTCCAGCATGGACCGGTTTTCCCGGTAATCCGTATTTGTA (site GGTCCAGCTTA)
Result: 1.56

Request: Another sequence to check: ACAATATCATGGACCGGTTTTCCCGGTAATCCGTATTTGCA (site ACACTATCTTG)
Result: 1.83

Request: Another sequence to check: AGAAAAGCATGGACCGGTTTTCCCGGTAATCCGTATTTGCT (site AGAAATGCTAG)
Result: 0

Request: Another sequence to check: GGTTGCCCATGGACCGGTTTTCCCGGTAATCCGTATTTGAT (site GGTTGCCCTAT)
Result: 0.0592

Request: Another sequence to check: CCAATCACATGGACCGGTTTTCCCGGTAATCCGTATTTGGG (site CCAATCACTCC)
Result: 0.336

Request: Another sequence to check: GGATAGCCATGGACCGGTTTTCCCGGTAATCCGTATTTGAG (site GGATAGCCTCT)
Result: 0.00752

Request: Another sequence to check: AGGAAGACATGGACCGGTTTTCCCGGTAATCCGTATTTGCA (site AGGCAGACTAG)
Result: 0

Request: Another sequence to check: AAGCACTCATGGACCGGTTTTCCCGGTAATCCGTATTTGGG (site AAGCACCCTCC)
Result: 0.00615

###

assay: recombinant barcode read abundance after kanamycin selection (control-corrected) (log10(CPM+1)); higher = more efficient recombination; sequences stand for … in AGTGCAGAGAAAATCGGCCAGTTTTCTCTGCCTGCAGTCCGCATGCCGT…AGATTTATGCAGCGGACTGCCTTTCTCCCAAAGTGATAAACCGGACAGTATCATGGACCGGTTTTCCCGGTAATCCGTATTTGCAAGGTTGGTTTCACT; site = the 11-nt target
Each record's recombinant barcode read abundance (log10) is compared with lo (below 0.1), med (0.1 to below 0.5), hi (0.5 or more) to give its class.

Example entries and their recorded answers appear below.
GCGTACCCTTGGGTTCTAACCTGTTGCCT (site GTGTACCCTAG): lo
TGAGAACCTTGGGTTCTAACCTGTTGCCT (site TGAGAACCTAG): hi
TGAGAGGCTTGGGTTCTAACCTGTTGCCT (site TGAGGGGCTAG): med
TCGGAGGCTTGGGTTCTAACCTGTTGCTG (site TCCGAGGCTCA): med
TCCAGTACTTGGGTTCTAACCTGTTGCTT (site TCCAGTACTAA): lo
TCTTAGGCTTGGGTTCTAACCTGTTGCGT (site TCTTAGGCTAC): hi
GAGAGGTCTTGGGTTCTAACCTGTTGCAT (site GAGAGGTCTAG): med
ATAAGACCTTGGGTTCTAACCTGTTGCCT (site ATAAGACCTAG): hi

Request: Would you mind sorting TCCCATTCTTGGGTTCTAACCTGTTGCCT (site TCCCATGCTAG) into the appropriate category?
Result: lo

Request: Another sequence to check: TTCAAAGCTTGGGTTCTAACCTGTTGCCT (site TTCAAAACTAG)
Result: lo

Request: Another sequence to check: TCACAGGCTTGGGTTCTAACCTGTTGCCG (site TCTCAGGCTCG)
Result: med

Request: Another sequence to check: CGCTTACCTTGGGTTCTAACCTGTTGCCT (site GGCTTACCTAG)
Result: lo

Request: Another sequence to check: TTAGGTCCTTGGGTTCTAACCTGTTGCTT (site TTAGGTCCTAA)
Result: hi

Request: Another sequence to check: GTAACTACTTGGGTTCTAACCTGTTGCAC (site GTAACTACTGT)
Result: hi

Request: Another sequence to check: GTGGGCACTTGGGTTCTAACCTGTTGCCT (site GTGGGCACTAG)
Result: med

Request: Another sequence to check: CAGCCACCTTGGGTTCTAACCTGTTGCCT (site GAGCCACCTAG)
Result: lo

Request: Another sequence to check: TTGGGTGCTTGGGTTCTAACCTGTTGCAT (site TAGGCTGCTAT)
Result: med
